Subject Of Test: serotonin 2 receptor (Rattus norvegicus, UniProt P14842)
Sequence (P14842 whole entry): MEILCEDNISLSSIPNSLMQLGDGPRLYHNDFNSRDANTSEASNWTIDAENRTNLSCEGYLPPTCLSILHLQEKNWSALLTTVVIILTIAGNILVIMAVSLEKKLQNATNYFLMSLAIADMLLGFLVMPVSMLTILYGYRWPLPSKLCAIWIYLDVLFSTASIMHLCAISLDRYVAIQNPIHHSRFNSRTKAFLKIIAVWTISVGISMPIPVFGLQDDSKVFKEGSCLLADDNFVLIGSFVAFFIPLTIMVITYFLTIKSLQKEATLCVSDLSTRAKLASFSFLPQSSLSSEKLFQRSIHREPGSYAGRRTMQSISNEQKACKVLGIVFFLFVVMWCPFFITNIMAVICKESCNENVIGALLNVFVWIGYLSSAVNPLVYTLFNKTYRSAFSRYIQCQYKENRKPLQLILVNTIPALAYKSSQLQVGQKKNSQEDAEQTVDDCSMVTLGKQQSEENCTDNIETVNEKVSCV
Assay Explanation: Binding test on [3H] ketanserin (serotonin 2 receptor)
Settings: [3H] ketanserin 0.3 nM, receptor fraction of rat cerebral cortex; read-out: 5HT2
Catalogue of molecules with associated pKi
For clarity, pKi is expressed as the negative log10 of concentration in mol/L.

Molecule | Test Result
NC(=O)NCc1ccc2ccn(C3CCN(CCc4ccc(F)cc4)CC3)c2c1 | 8.60
CC(O)c1ccc2c(c1)N(C1CCN(CCc3ccc(F)cc3)CC1)CC2 (stereo not drawn) | 8.18
CC(=O)Nc1ccc(CCN2CCC(N3CCc4ccccc43)CC2)cc1 | 7.52

Consider the molecule shown here: "Fc1ccccc1CCN1CCC(N2CCc3ccccc32)CC1" What is its recorded pKi?
7.89

Now the same for "Fc1ccc(CCN2CCC(n3ccc4ccccc43)CC2)c(F)n1"
7.79

Also "COc1ccc(S(=O)(=O)NCCN2CCC(N3CCc4ccccc43)CC2)cc1" ?
7.46

What do you have for "O=C(c1cccnc1)c1ccc2c(c1)N(C1CCN(CCc3ccc(F)cc3)CC1)CC2" ?
8.41

Then what about the molecule "CN(c1ccc2c(c1)N(C1CCN(CCc3ccc(F)cc3)CC1)CC2)S(C)(=O)=O" ?
7.95

Another molecule: "CC(=O)NCc1ccc2ccn(C3CCN(CCc4ccc(F)cc4F)CC3)c2c1"
8.89

Please give the result for "Fc1ccc(CCN2CCC(N3CCc4ccc(Cn5cccc5)cc43)CC2)cc1" too.
8.31

Again, but for "COc1ccc(CCN2CCC(N3CCc4ccccc43)CC2)s1"
7.85

Repeat for the following molecule: "Nc1nc2cc3c(cc2s1)CCN3C1CCN(CCc2ccc(F)cc2)CC1"
7.84

Lookup COc1ccc2c(c1)CCCC2C1CCN(CCc2ccc(F)cc2)CC1 (stereo not drawn)
8.41

Moving on to the next molecule: "O=C(CCO)NCc1ccc2ccn(C3CCN(CCc4ccccc4F)CC3)c2c1"
8.48

Then what about the molecule "Fc1ccc(CCN2CCC(N3CCc4ccc(Cn5ccnc5)cc43)CC2)cc1" ?
8.92

Repeat for the following molecule: "O=C1CNC(=O)N1Cc1ccc2ccn(C3CCN(CCc4ccc(F)cc4)CC3)c2c1"
7.90

Would you mind doing CC(c1ccc2c(c1)N(C1CCN(CCc3ccc(F)cc3)CC1)CC2)c1ccccn1 (stereo not drawn) as well?
8.54
